# Tested on: 328373-195-R-J1-PDC complex spheroids, viability % test/control
# Assay explanation: Anticancer human tumor 328373-195-R-J1-PDC patient-derived head and neck squamous carcinoma cell line growth inhibition [CLK]
# Condition notes: second compound 0.316 µM; first compound 0.00949 µM; stronger effect = lower value
Under this convention, Satisfied denotes viability, T/C strictly below 7% and Not satisfied denotes viability, T/C at or above 7%.

// below: answered compounds
>>> qualitative_label("C=CC(=O)Nc1cc(Nc2nccc(-c3cn(C)c4ccccc34)n2)c(OC)cc1N(C)CCN(C)C + CNC(=O)c1ccc(Nc2nc(OC3CCCC3)c3c(-c4ccc5nc(C)oc5c4)c[nH]c3n2)c(OC)c1")
"Not satisfied"
>>> qualitative_label("CC(C)CC(NC(=O)C(Cc1ccccc1)NC(=O)c1cnccn1)B(O)O (stereo unspecified) + CN1CCN(c2cc(C(=O)Nc3cc4cc(-c5cnn(C)c5)ccc4cn3)ccn2)CC1")
"Satisfied"
>>> qualitative_label("C=CC(=O)Nc1cc(Nc2nccc(-c3cn(C)c4ccccc34)n2)c(OC)cc1N(C)CCN(C)C + CN1CCN(c2cc(C(=O)Nc3cc4cc(-c5cnn(C)c5)ccc4cn3)ccn2)CC1")
"Not satisfied"
>>> qualitative_label("CC(C)CC(NC(=O)C(Cc1ccccc1)NC(=O)c1cnccn1)B(O)O (stereo unspecified) + CNC(=O)c1ccc(Nc2nc(OC3CCCC3)c3c(-c4ccc5nc(C)oc5c4)c[nH]c3n2)c(OC)c1")
"Satisfied"

Continue with the compound presented below.
Task: Determine if NC(=O)C(=Cn1cnc(-c2cc(C(F)(F)F)cc(C(F)(F)F)c2)n1)c1cncnc1 + CN1CCN(c2cc(C(=O)Nc3cc4cc(-c5cnn(C)c5)ccc4cn3)ccn2)CC1 shows viability, T/C strictly lower than 7%.
Output: Not satisfied

###

# Test system: 328373-195-R-J1-PDC complex spheroids, viability % test/control
# Assay explanation: Anticancer human tumor 328373-195-R-J1-PDC cell line growth inhibition [CLK];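 note: spheroids exposed to the agents for 7 days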
# Condition notes: second compound 1 µM; first compound 0.316 µM; stronger effect = lower value
This section presents compounds with their documented viability, T/C values.

In the examples that follow, each entry is paired with its recorded viability, T/C.
>>> data_value("CC(Nc1ccc2c(c1)OCCn1cc(N3C(=O)OCC3C(F)F)nc1-2)C(N)=O (stereo not given) + CNC(=O)c1ccc(Nc2nc(OC3CCCC3)c3c(-c4ccc5nc(C)oc5c4)c[nH]c3n2)c(OC)c1")
"9.86%"
>>> data_value("CC1COCCN1c1cc(C2(S(C)(=N)=O)CC2)nc(-c2ccnc3[nH]ccc23)n1 (stereo not given) + CNC(=O)c1ccc(Nc2nc(OC3CCCC3)c3c(-c4ccc5nc(C)oc5c4)c[nH]c3n2)c(OC)c1")
"8.32%"
>>> data_value("C=CC(=O)N1CCN(c2nc(=O)n(-c3c(C)ccnc3C(C)C)c3nc(-c4c(O)cccc4F)c(F)cc23)C(C)C1 (stereo not given) + CN1CCN(c2cc(C(=O)Nc3cc4cc(-c5cnn(C)c5)ccc4cn3)ccn2)CC1")
"0.89%"
>>> data_value("CC1COCCN1c1cc(C2(S(C)(=N)=O)CC2)nc(-c2ccnc3[nH]ccc23)n1 (stereo not given) + CN1CCN(c2cc(C(=O)Nc3cc4cc(-c5cnn(C)c5)ccc4cn3)ccn2)CC1")
"0.58%"

Now look at this one.
Task: Would you kindly share the measured viability, T/C for COC1C=CCC(C)C(C)S(=O)(=O)NC(=O)c2ccc3c(c2)N(CC2CCC21)CC1(CCCc2cc(Cl)ccc21)CO3 (stereo not given) + CN1CCN(c2cc(C(=O)Nc3cc4cc(-c5cnn(C)c5)ccc4cn3)ccn2)CC1 ?
Output: 2.21%
